Assignment: determine reported kon for the given binders.
EXPERIMENTAL TARGET: T1, human MSLN-FL-his protein (human, UniProt Q13421 296-580)
T1 construct: made in HEK293E cells, purified on nickel column; also called hMSLN-FL-his; human MSLN full-length protein; not shown: His tag
T1 sequence (Q13421 other isoform, or with tags, fused parts or gaps): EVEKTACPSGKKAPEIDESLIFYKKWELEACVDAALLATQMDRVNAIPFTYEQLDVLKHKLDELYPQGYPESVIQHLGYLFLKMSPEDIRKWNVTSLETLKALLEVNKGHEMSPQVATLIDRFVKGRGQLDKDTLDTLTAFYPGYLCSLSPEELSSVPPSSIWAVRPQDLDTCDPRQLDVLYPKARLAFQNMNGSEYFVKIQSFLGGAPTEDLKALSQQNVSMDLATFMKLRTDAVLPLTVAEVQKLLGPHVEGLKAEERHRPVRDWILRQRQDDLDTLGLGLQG
RUN DESCRIPTION: SPR (Biacore), antibody captured on Protein A chip;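 also: flow cell at 25 °C, antigen injected for 240 s at five concentrations from 200 nM downward, dissociation followed up to 600 s, double-referenced, fitted with Langmuir 1:1 model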
Enter your answer as a number in M⁻¹ s⁻¹; do not include the unit.

Query string: Looking for the measured kon of S009-F7.11.11 (antibody, human IgG1, kappa, V domains shown, human-murine chimeric antibody, human IgG1/kappa constant regions) VH: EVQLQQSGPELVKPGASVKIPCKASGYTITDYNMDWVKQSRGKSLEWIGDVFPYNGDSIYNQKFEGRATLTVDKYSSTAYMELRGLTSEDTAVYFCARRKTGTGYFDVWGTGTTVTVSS VL: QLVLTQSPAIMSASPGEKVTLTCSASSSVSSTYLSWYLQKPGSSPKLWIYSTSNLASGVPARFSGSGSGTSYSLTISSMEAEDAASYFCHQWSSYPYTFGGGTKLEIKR , can you help?
Result string: 1.33e+06

Query string: And the next one, S009-F8-32.3 (antibody, human IgG1, kappa, V domains shown, human-murine chimeric antibody, human IgG1/kappa constant regions) VH: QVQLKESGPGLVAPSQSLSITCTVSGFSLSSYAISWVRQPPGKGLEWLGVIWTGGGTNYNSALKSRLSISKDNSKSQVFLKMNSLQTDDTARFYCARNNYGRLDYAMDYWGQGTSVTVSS VL: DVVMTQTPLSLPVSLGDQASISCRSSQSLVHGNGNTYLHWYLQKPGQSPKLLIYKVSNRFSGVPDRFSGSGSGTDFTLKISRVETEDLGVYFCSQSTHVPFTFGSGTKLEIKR ?
Result string: 510000
